species on record: Rattus norvegicus; experiment: Open TG-GATES - Regimen: Single; type: toxicity, organism-based, Sprague-Dawley; set-up: regimen Single, gender Male, age 6 weeks; settings: in vivo, po, 100 mg/kg, 24 h, tissue Blood, route gavage, dose level Low
The label depends only on Neu: yes (1) if it is at least 20%, no (0) if it is smaller.

**Query** Tell me whether Neu is at least 20% here: O=C(O)c1cc(/N=N/c2ccc(S(=O)(=O)Nc3ccccn3)cc2)ccc1O
**Result** no (0)

**Query** Is the recorded value of Neu equal to or greater than 20% for this molecule? Clc1ccccc1CN1CCc2sccc2C1
**Result** no (0)

**Query** Record O=C(O)c1cn(C2CC2)c2cc(N3CCNCC3)c(F)cc2c1=O ; criterion: Neu no lower than 20%. Met?
**Result** no (0)

**Query** Entry CCc1cc(C(N)=S)ccn1 [ETHIONAMIDE] : is its Neu no less than 20%?
**Result** yes (1)

###

species on record: Rattus norvegicus; assay: Open TG-GATES - Regimen: Single; assay type: toxicity, organism-based, Sprague-Dawley; set-up: regimen Single, gender Male, age 6 weeks; conditions: in vivo, po, 0 mg/kg, 6 h, tissue Plasma, route gavage, dose level Control
Each record here notes measured ALT.
Numbers only; they are read as IU/L.

# example entries with known answers
[
  {
    "Molecule": "CC(=O)Oc1ccccc1C(=O)O",
    "ALT (IU/L)": 32
  },
  {
    "Molecule": "CSc1ccc2c(c1)N(CCC1CCCCN1C)c1ccccc1S2 (configuration not stated)",
    "ALT (IU/L)": 28
  },
  {
    "Molecule": "COc1ccc(Cc2nccc3cc(OC)c(OC)cc23)cc1OC",
    "ALT (IU/L)": 38.4
  },
  {
    "Molecule": "O=C(O)c1cn(C2CC2)c2cc(N3CCNCC3)c(F)cc2c1=O",
    "ALT (IU/L)": 36.6
  },
  {
    "Molecule": "NC(=O)N1c2ccccc2C=Cc2ccccc21 [CARBAMAZEPINE]",
    "ALT (IU/L)": 37
  }
]

Reported ALT ( C[C@H](CS)C(=O)N1CCC[C@H]1C(=O)O ) = 31.2

According to the records, this molecule Cn1c(=O)c2[nH]cnc2n(C)c1=O.O displays ALT of 39.8

O=C(O)c1cc(/N=N/c2ccc(S(=O)(=O)Nc3ccccn3)cc2)ccc1O has a reported ALT of 35.8

Summary for this molecule, CCc1cc(C(N)=S)ccn1 [ETHIONAMIDE] : ALT is 29.6

// ALT value for NC(=O)N/N=C/c1ccc([N+](=O)[O-])o1 : 44.4

ALT reported for this molecule CN(C)CCC=C1c2ccccc2CCc2ccccc21 : 44.6

Clc1ccccc1CN1CCc2sccc2C1 yielded ALT of 32.4

###

species on record: Rattus norvegicus; experiment: Open TG-GATES - Regimen: Daily Repeat; assay type: toxicity, organism-based, Sprague-Dawley; set-up: regimen Daily Repeat, gender Male, age 6 weeks; details: in vivo, po, 0 mg/kg, […], tissue Plasma, route gavage, dose level Control, time 7 day
// values below are reported PL
Use mg/dL as the unit, but write only the number.

[
  {
    "Molecule": "CCCC(CCC)C(=O)O",
    "Measured property": "PL",
    "Result": 146.2
  },
  {
    "Molecule": "O=C(O)c1cn(C2CC2)c2cc(N3CCNCC3)c(F)cc2c1=O",
    "Measured property": "PL",
    "Result": 158.4
  },
  {
    "Molecule": "NC(=O)N/N=C/c1ccc([N+](=O)[O-])o1",
    "Measured property": "PL",
    "Result": 146.4
  }
]

Entry under test: Clc1ccccc1CN1CCc2sccc2C1 . Its PL was 153.4

Recorded result, COc1ccc(Cc2nccc3cc(OC)c(OC)cc23)cc1OC , PL: 148.8

The measured PL associated with C[C@H](CS)C(=O)N1CCC[C@H]1C(=O)O reads 132.2

Looking up CCc1cc(C(N)=S)ccn1 [ETHIONAMIDE] , I found its PL recorded as 153.4

###

species on record: Rattus norvegicus; experiment: Open TG-GATES - Regimen: Single; type: toxicity, organism-based, Sprague-Dawley; design: regimen Single, gender Male, age 6 weeks; conditions: in vivo, po, 300 mg/kg, 3 h, tissue Blood, route gavage, dose level Middle
Measured property: WBC (x10_2/uL)
Just the number please, in x10_2/uL, no unit attached.

Observe how each entry below is paired with its result.
[
  {
    "Compound": "O=C(O)c1cn(C2CC2)c2cc(N3CCNCC3)c(F)cc2c1=O [CIPROFLOXACIN]",
    "WBC [x10_2/uL]": 102.6
  },
  {
    "Compound": "CCc1cc(C(N)=S)ccn1 [ETHIONAMIDE]",
    "WBC [x10_2/uL]": 69.7
  },
  {
    "Compound": "C[C@H](CS)C(=O)N1CCC[C@H]1C(=O)O [CAPTOPRIL]",
    "WBC [x10_2/uL]": 125.4
  }
]

Record Clc1ccccc1CN1CCc2sccc2C1 [TICLOPIDINE] , field WBC: 73.9

The measured WBC associated with O=C(O)c1cc(/N=N/c2ccc(S(=O)(=O)Nc3ccccn3)cc2)ccc1O [SULFASALAZINE] reads 93.5

###

Entries annotated with measured Ca
species on record: Rattus norvegicus; assay: Open TG-GATES - Regimen: Daily Repeat; type: toxicity, organism-based, Sprague-Dawley; set-up: regimen Daily Repeat, gender Male, age 6 weeks; settings: in vivo, po, 0 mg/kg, […], tissue Plasma, route gavage, dose level Control, time 14 day
Number only, in mg/dL; omit the unit.

[
  {
    "Molecule": "NC(=O)N/N=C/c1ccc([N+](=O)[O-])o1 [NITROFURAZONE]",
    "Measured property": "Ca",
    "Result": 11
  }
]

For reference, reported Ca for CC(=O)Oc1ccccc1C(=O)O [ASPIRIN] stands at 10.8

Kindly note the recorded Ca for COc1ccc2c(c1)c(CC(=O)O)c(C)n2C(=O)c1ccc(Cl)cc1 [INDOMETHACIN] , which is 10.4

// recorded Ca for CSc1ccc2c(c1)N(CCC1CCCCN1C)c1ccccc1S2 (stereo not given) [THIORIDAZINE] : 10.8

The reported Ca of the molecule CN(C)CCC=C1c2ccccc2CCc2ccccc21 [AMITRIPTYLINE] was 10.9

Just so you know, measured Ca for NC(=O)N1c2ccccc2C=Cc2ccccc21 [CARBAMAZEPINE] came out at 10.7

Recorded Ca (molecule Cn1c(=O)c2[nH]cnc2n(C)c1=O.O [THEOPHYLLINE] ): 10.3

According to the records, this molecule O=C(O)c1cc(/N=N/c2ccc(S(=O)(=O)Nc3ccccn3)cc2)ccc1O [SULFASALAZINE] displays Ca of 10.6

// recorded Ca for COc1ccc(Cc2nccc3cc(OC)c(OC)cc23)cc1OC [PAPAVERINE] : 10.5

Record CCc1cc(C(N)=S)ccn1 [ETHIONAMIDE] , field Ca: 10.7

###

species on record: Rattus norvegicus; experiment: Open TG-GATES - Regimen: Single; format: toxicity, organism-based, Sprague-Dawley; design: regimen Single, gender Male, age 6 weeks; settings: in vivo, po, 100 mg/kg, 3 h, tissue Plasma, route gavage, dose level Low
# key: entry, value: TP
Your answer should be a plain number; it is taken to be in g/dL.

# example entries with known answers
[
  {
    "Molecule": "CCc1cc(C(N)=S)ccn1 [ETHIONAMIDE]",
    "TP (g/dL)": 5.5
  },
  {
    "Molecule": "O=C(O)c1cc(/N=N/c2ccc(S(=O)(=O)Nc3ccccn3)cc2)ccc1O [SULFASALAZINE]",
    "TP (g/dL)": 5.4
  },
  {
    "Molecule": "O=C(O)c1cn(C2CC2)c2cc(N3CCNCC3)c(F)cc2c1=O [CIPROFLOXACIN]",
    "TP (g/dL)": 5.5
  },
  {
    "Molecule": "C[C@H](CS)C(=O)N1CCC[C@H]1C(=O)O [CAPTOPRIL]",
    "TP (g/dL)": 5.5
  }
]

Now for the molecule whose TP we want.
The recorded TP for entry Clc1ccccc1CN1CCc2sccc2C1 [TICLOPIDINE] equals 5.5

###

organism: Rattus norvegicus; test: Open TG-GATES - Regimen: Single; assay type: toxicity, organism-based, Sprague-Dawley; set-up: regimen Single, gender Male, age 6 weeks; conditions: in vivo, po, 0 mg/kg, 6 h, tissue Kidney, route gavage, dose level Control
Measured KIDNEY_L by item

[
  {
    "Compound": "O=C(O)c1cc(/N=N/c2ccc(S(=O)(=O)Nc3ccccn3)cc2)ccc1O [SULFASALAZINE]",
    "KIDNEY_L": "1 g"
  }
]

Lab book: KIDNEY_L of CCc1cc(C(N)=S)ccn1 [ETHIONAMIDE] noted as 1 g

The compound COc1ccc(Cc2nccc3cc(OC)c(OC)cc23)cc1OC [PAPAVERINE] showed KIDNEY_L equal to 0.9 g

# KIDNEY_L of CN(C)CCC=C1c2ccccc2CCc2ccccc21 [AMITRIPTYLINE] = 0.9 g

Documented KIDNEY_L of COc1ccc2c(c1)c(CC(=O)O)c(C)n2C(=O)c1ccc(Cl)cc1 [INDOMETHACIN] : 0.9 g

In plain terms, C[C@H](CS)C(=O)N1CCC[C@H]1C(=O)O [CAPTOPRIL] has a documented KIDNEY_L of 1 g

// KIDNEY_L value for CC(=O)Oc1ccccc1C(=O)O [ASPIRIN] : 0.9 g

Noted for CSc1ccc2c(c1)N(CCC1CCCCN1C)c1ccccc1S2 (stereo not drawn) [THIORIDAZINE] : its KIDNEY_L reads 0.9 g
